pIC50 for assorted compounds
- assayed_target: MAPK14 (human) (UniProt Q16539)
- Sequence (Q16539 whole entry, looked up): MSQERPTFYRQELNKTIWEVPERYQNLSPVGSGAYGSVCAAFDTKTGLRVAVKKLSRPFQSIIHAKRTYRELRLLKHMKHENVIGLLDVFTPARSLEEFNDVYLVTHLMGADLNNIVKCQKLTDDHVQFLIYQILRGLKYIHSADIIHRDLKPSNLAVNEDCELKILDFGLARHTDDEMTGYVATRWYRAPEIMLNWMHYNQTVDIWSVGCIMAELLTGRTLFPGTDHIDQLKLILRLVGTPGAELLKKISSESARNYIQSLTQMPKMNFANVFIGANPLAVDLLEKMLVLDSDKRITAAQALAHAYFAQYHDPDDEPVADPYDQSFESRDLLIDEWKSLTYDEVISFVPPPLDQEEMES
- method_notes: Inhibition of MAPK14 Kinase Activity
pIC50: −log10 of the molar value.

// worked examples, pIC50 included
INSERT INTO results (smiles_data, result) VALUES
  ('CCOC[C@H](C)Nc1nc2ccc(-c3nc(C4(CO)CC4)[nH]c3-c3ccc(F)cc3F)nc2o1', '> 7.30'),
  ('COCC[C@H](C)Nc1nc2ccc(-c3nc(C4(C)COC4)[nH]c3-c3ccc(F)cc3F)nc2o1', '> 7.30');

[ask] Query: pIC50; subject: `COCC[C@H](C)Nc1nc2ccc(-c3nc(C4CC4)[nH]c3-c3ccc(F)cc3F)nc2o1`
[reply] > 7.30

[ask] Query (compound): `COCC[C@@H](C)Nc1nc2ccc(-c3nc(C(C)(C)CO)[nH]c3-c3ccc(F)cc3F)nc2o1` ; field requested: pIC50
[reply] > 7.30

[ask] Given the compound `COCC[C@H](C)Nc1nc2ccc(-c3nc(C(C)(C)CO)[nH]c3-c3ccc(F)cc3F)nc2o1` , what is its reported pIC50?
[reply] > 7.30
